System Under Test: T1, HLA-B*08:01 (human)
T1 construct: Recombinant MHC class I molecule without the test peptide; the peptide is the other partner
Assay Procedure: REVEAL MHC-peptide binding assay, recombinant HLA-B*08:01
Property Name: In Vitro Score

- AFIIFWVLR (synthetic 9-mer; the entry already carries the mutation) [AFIIFWVLR (SEQ ID NO: 31)]: 0.2 % of positive control peptide
- IIFWVKRGH (synthetic 9-mer; the entry already carries the mutation) [IIFWVKRGH (SEQ ID NO: 65)]: 0.1 % of positive control peptide
- FWVKRGHKK (synthetic 9-mer; the entry already carries the mutation) [FWVKRGHKK (SEQ ID NO: 67)]: 0.4 % of positive control peptide
- FWVHRGRKK (synthetic 9-mer; the entry already carries the mutation) [FWVHRGRKK (SEQ ID NO: 42)]: 0 % of positive control peptide
- FWVQRGAKK (synthetic 9-mer; the entry already carries the mutations) [FWVQRGAKK (SEQ ID NO: 83)]: 0 % of positive control peptide
- FWVKRGNKK (synthetic 9-mer; the entry already carries the mutation) [FWVKRGNKK (SEQ ID NO: 75)]: 0.1 % of positive control peptide
- IFWVKRGRK (synthetic 9-mer) [IFWVKRGRK (SEQ ID NO: 20)]: 0.4 % of positive control peptide
- AFIIFWVKR (synthetic 9-mer) [AFIIFWVKR (SEQ ID NO: 17)]: 1.9 % of positive control peptide
- AFIIFWVQR (synthetic 9-mer; the entry already carries the mutation) [AFIIFWVQR (SEQ ID NO: 51)]: 0 % of positive control peptide
- VAFIIFWVH (synthetic 9-mer; the entry already carries the mutation) [VAFIIFWVH (SEQ ID NO: 37)]: 0 % of positive control peptide
- IIFWVQRGN (synthetic 9-mer; the entry already carries the mutations) [IIFWVQRGN (SEQ ID NO: 85)]: 0 % of positive control peptide
- WVSRGRKKL (synthetic 9-mer; the entry already carries the mutation) [WVSRGRKKL (SEQ ID NO: 29)]: 6.2 % of positive control peptide
- FWVLRGRKK (synthetic 9-mer; the entry already carries the mutation) [FWVLRGRKK (SEQ ID NO: 35)]: 0 % of positive control peptide
- WVKRGLKKL (synthetic 9-mer; the entry already carries the mutation) [WVKRGLKKL (SEQ ID NO: 64)]: 65.7 % of positive control peptide
- WVLRGRKKL (synthetic 9-mer; the entry already carries the mutation) [WVLRGRKKL (SEQ ID NO: 36)]: 4 % of positive control peptide
- FIIFWVKRG (synthetic 9-mer) [FIIFWVKRG (SEQ ID NO: 18)]: 0.1 % of positive control peptide
